# experimental target: RORc ligand binding domain (Homo sapiens, UniProt P51449)
# Sequence (P51449 269-508 limits assumed): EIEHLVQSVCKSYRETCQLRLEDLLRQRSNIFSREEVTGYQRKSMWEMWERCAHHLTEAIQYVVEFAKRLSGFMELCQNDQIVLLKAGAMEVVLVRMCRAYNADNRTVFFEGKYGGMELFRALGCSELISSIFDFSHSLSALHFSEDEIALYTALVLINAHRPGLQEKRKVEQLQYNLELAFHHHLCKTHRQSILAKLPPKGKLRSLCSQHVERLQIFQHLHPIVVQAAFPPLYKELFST
# run description: In vitro RORc ligand binding assay (25-[3H]hydroxycholesterol displacement)
measure: IC50 (nM)

1. C[C@H]1CC[C@H](c2ccccc2)S(=O)(=O)N1Cc1ccc(C2(OCc3nnc[nH]3)CCOCC2)cc1F :: 7.2
2. C[C@H]1CC[C@H](c2ccccc2)S(=O)(=O)N1Cc1cc(F)c([C@]2(c3n[nH]c(=O)o3)C[C@@](O)(C(F)(F)F)C2)cc1F :: 5.3
3. C[C@H]1CC[C@H](c2ccccc2)S(=O)(=O)N1Cc1cc(F)c([C@]2(Cn3cncn3)C[C@](C)(O)C2)cc1F (racemic) :: 7.3

From: patent US10259808B2
